measurementTarget: TRPML1 (Homo sapiens, UniProt Q9GZU1)
Construct: expressed in transfected cells; host or cells: HEK T-REx cells stably expressing GCaMP6f and TRPML1
Sequence (Q9GZU1 whole entry): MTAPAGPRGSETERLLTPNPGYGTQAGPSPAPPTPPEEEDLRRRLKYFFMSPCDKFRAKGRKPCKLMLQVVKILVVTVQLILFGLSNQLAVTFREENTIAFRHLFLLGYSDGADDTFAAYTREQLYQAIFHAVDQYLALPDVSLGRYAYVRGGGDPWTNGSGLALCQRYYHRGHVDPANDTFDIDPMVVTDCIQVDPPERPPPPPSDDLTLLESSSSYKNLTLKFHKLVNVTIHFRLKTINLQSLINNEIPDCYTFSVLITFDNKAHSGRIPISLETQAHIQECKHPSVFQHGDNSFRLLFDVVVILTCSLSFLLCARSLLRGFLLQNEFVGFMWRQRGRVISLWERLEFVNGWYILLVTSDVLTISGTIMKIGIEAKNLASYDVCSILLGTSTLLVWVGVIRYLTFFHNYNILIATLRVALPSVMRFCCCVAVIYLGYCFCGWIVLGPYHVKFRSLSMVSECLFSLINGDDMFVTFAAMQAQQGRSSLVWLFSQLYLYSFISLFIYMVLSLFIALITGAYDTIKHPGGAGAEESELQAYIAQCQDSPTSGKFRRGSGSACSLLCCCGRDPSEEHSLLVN
methodSummary: Cellular TRPML1 assay (FLIPR, GCaMP6f calcium read-out)
Format: cell-based
assayConditions: HEKT-REx/GCaMP6f/TRPML1 cells, FLIPR TETRA, kinetic response over 300 seconds; read-out: TRPML1 FLIPR pEC50 (converted)
outcomeMeasure: EC50

q: Entry `O=C(Nc1ccc(OCC(F)(F)F)c(F)c1)c1nc(N2CCCC2)oc1CC(F)(F)F` needs its EC50 filled in; supply it.
a: 1000 to 10000 nM

q: Entry O=C(Nc1ccc(OC2CCCC2(F)F)c(F)c1)c1nc(N2CCC3(CCOC3)C2)oc1CC(F)(F)F (stereo not shown) needs its EC50 filled in; supply it.
a: 1000 to 10000 nM

q: Entry `CCC1(CO)CN(c2nc(C(=O)Nc3cc(F)c(O[C@@H]4C[C@@H]5C[C@@H]5C4)c(Cl)c3)c(CC(F)(F)F)o2)C1` needs its EC50 filled in; supply it.
a: 10 to 1000 nM

q: Entry CCC1(OC)CN(c2nc(C(=O)Nc3cc(F)c(OC4CC5CC(C5)C4)c(F)c3)c(CC(F)(F)F)o2)C1 (stereo not shown) needs its EC50 filled in; supply it.
a: 10 to 1000 nM

q: Entry O=C(Nc1cc(F)c(OC2CC3C[C@@H]3C2)c(F)c1)c1nc(N2CC3CC2C3)oc1CC(F)(F)F (stereo partly shown) needs its EC50 filled in; supply it.
a: 10 to 1000 nM

q: Entry `O=C(Nc1ccc(OC2CCCC2)c(F)c1)c1nc(N2CCCC2)oc1CC(F)(F)F` needs its EC50 filled in; supply it.
a: 1000 to 10000 nM

q: Entry CCc1oc(N2CC(CC)(OC)C2)nc1C(=O)Nc1ccc(OC2CC3CC(C3)C2)c(F)c1 (stereo not shown) needs its EC50 filled in; supply it.
a: 10 to 1000 nM

Where do these numbers come from? They come from patent US12098145B2.
